The reported measurements were obtained from patent US4172198A.

Examples of compounds with documented MIC follow.
Test system: Ps. Aeruginosa 721
ASSAY TEXT: minimal inhibitory concentration (MIC) by two-fold agar-plate dilution method
Type: cell-based
CONDITION LABEL: Pseudomonas aeruginosa, 10^6 viable cells per ml, HI-agar, 37° C., 20 hours
The reply should be a number in mg/L, with the unit left off.

COMPOUND | MIC [mg/L]
Cn1nnnc1SCC1=C(C(=O)O)N2C(=O)C(NC(=O)[C@H](NC(=O)c3cnc4ccccn4c3=O)c3ccccc3)C2SC1 (stereo partly drawn) | 1.56
Cn1nnnc1SCC1=C(C(=O)O)N2C(=O)C(NC(=O)[C@H](NC(=O)N3CCOC3=O)c3ccccc3)[C@H]2SC1 (stereo partly drawn) | 0.39
Cn1nnnc1SCC1=C(C(=O)O)N2C(=O)C(NC(=O)[C@H](NC(=O)c3cc(Cl)n[nH]c3=O)c3ccccc3)[C@H]2SC1 (stereo partly drawn) | 0.78
Cn1nnnc1SCC1=C(C(=O)O)N2C(=O)C(NC(=O)[C@H](NC(=O)Cc3cc(=O)[nH]c(=N)[nH]3)c3ccccc3)C2SC1 (stereo partly drawn) | 1.56
Cn1nnnc1SCC1=C(C(=O)O)N2C(=O)C(NC(=O)[C@H](NC(=O)N3CCOC3=O)c3ccc(O)cc3)[C@H]2SC1 (stereo partly drawn) | 0.39

--- query ---
# input Under Ps. Aeruginosa 721: MIC value of Cn1nnnc1SCC1=C(C(=O)O)N2C(=O)C(NC(=O)[C@H](NC(=O)c3nonc3O)c3ccccc3)[C@H]2SC1 (stereo partly drawn) ?
# output 0.39
